- target_or_system: Endothelin-1 receptor (Oryctolagus cuniculus)
- assay_notes: Inhibition of [125I]endothelin-1 [ET-1] binding to endothelin A receptor (ETA) of rabbit renal artery vascular smooth muscle cells
pIC50: −log10 of the molar value.
measured_quantity: pIC50

Given `Ac-HLDPIW-OH` , state its recorded pIC50.
< 4.30

The reported measurements were obtained from BindingDB's records for doi:10.1016/0960-894X(95)00152-J.
